This document collects pIC50 values reported for Smurf-1 (Homo sapiens (Human), UniProt Q9HCE7).
pIC50: −log10 of the molar value.
OBSERVED PROPERTY: pIC50

• Cc1c(C(=O)Nc2c(C)n(C)n(C3CCCCC3)c2=O)noc1C1CCCCC1 [Example 10] = 7.30
• Cc1c(C(=O)Nc2c(C)n(C)n(C3CCCCC3)c2=O)noc1C1=CCC(C(C)C)CC1 (stereo not drawn) [Example 1] = 8.55
• Cc1c(C(=O)Nc2c(C)n(C)n(C3CCCCC3)c2=O)noc1C1=CCC(C(C)(C)C)CC1 (stereo not drawn) [Example 1.4] = 8.49
• Cc1c(C(=O)Nc2c(C)n(C)n(C3CCCCC3)c2=O)noc1C1CCC2(CC1)OCCO2 [Example 11] = 6.38
• Cc1c(C(=O)Nc2c(C)n(C)n(C3CCCCC3)c2=O)noc1C1CCC(C)(C)C1 (stereo not drawn) [Example 6.1] = 7.64
• Cc1c(C(=O)Nc2c(C)n(C)n(C3CCCCC3)c2=O)noc1[C@@H]1OCC(C)(C)O[C@H]1C [Example 20] = 6.74
• Cc1c(C(=O)Nc2c(C)n(C)n(C3CCC3)c2=O)noc1[C@H]1CCC[C@@H](C(C)(C)C)O1 (single isomer, unassigned) [Example 15b] = 6.20
• Cc1c(C(=O)Nc2c(C)n(C)n(C3CCCCC3)c2=O)noc1C1CCC(C)(C)CC1 [Example 6] = 8.24
• Cc1c(C(=O)Nc2c(C)n(C)n(C3CCC3)c2=O)noc1[C@@H]1CCC[C@H](C(C)(C)C)O1 (single isomer, unassigned) [Example 15a] = 6.54
• CO[C@H]1C[C@@H](c2onc(C(=O)Nc3c(C)n(C)n(C4CCCCC4)c3=O)c2C)O[C@@H](C(C)(C)C)C1 (racemic) [Example 13] = 6.19
• CCC1CC(C)CC=C1c1onc(C(=O)Nc2c(C)n(C)n(C3CCCCC3)c2=O)c1C (stereo not drawn) [Example 1.1] = 8.68
• CO[C@H]1C[C@@H](c2onc(C(=O)Nc3c(C)n(C)n(C4CCCCC4)c3=O)c2C)O[C@@H](C(C)(C)C)C1 (single isomer, unassigned) [Example 13a] = 6.54
• Cc1c(C(=O)Nc2c(C)n(C)n(C3CCCCC3)c2=O)noc1/C=C\C(C)(C)C [Example 8] = 7.34
• Cc1c(C(=O)Nc2c(C)n(C)n(C3CCCCC3)c2=O)noc1C1OCC(C)(C)CO1 [Example 26] = 6.24
• CO[C@H]1C[C@@H](c2onc(C(=O)Nc3c(C)n(C)n(C4CCCCC4)c3=O)c2C)O[C@@H](C(C)(C)C)C1 (single isomer, unassigned) [Example 13b] = 6.14

====

# TARGET DESC: UniProtKB Q9HCE7
pIC50: −log10 of the molar value.
Returns met if the recorded pIC50 is greater than or equal to 8, and not met otherwise.

- Cc1c(C(=O)Nc2c(C)n(C)n(C3CCCCC3)c2=O)noc1C1=CCC2(CCOC2)CC1 (stereo not shown) [Example 4]: not met
- Cc1c(C(=O)Nc2c(C)n(C)n(C3CCCCC3)c2=O)noc1CCC(C)(C)C [Example 7]: not met
- CCC1CC=C(c2onc(C(=O)Nc3c(C)n(C)n(C4CCCCC4)c3=O)c2C)CC1 (stereo not shown) [Example 1.3]: met
- Cc1c(C(=O)Nc2c(C)n(C)n(C3CCCCC3)c2=O)noc1C1CC=CC(C(C)C)O1 (mixture of isomers) [Example 18]: not met
- CC1=CCC(c2onc(C(=O)Nc3c(C)n(C)n(C4CCCCC4)c3=O)c2C)OC1 (stereo not shown) [Example 21.2]: not met
- Cc1c(C(=O)Nc2c(C)n(C)n(C3CCCCC3)c2=O)noc1C1=CCC2(CCCC2)CC1 [Example 2]: met
- Cc1c(C(=O)Nc2c(C)n(C)n(C3CCCCC3)c2=O)noc1C1=CCC2(CCCO2)CC1 (stereo not shown) [Example 2.1]: not met

Entry source: patent US9403810B2
